Where do the numbers come from? From paper PMC6017616.

Experiment: Measurement of partition coefficient (logP) by UV-Vis spectrophotometry
Assay type: physicochemical
Settings: 1-octanol / phosphate buffer 0.1 M pH 7.4; mean of triplicate determinations
Where a name gives a salt, the structure may show the parent alone.
result.type: logP
Just the number, please, no unit attached.

Incoming: Give the value of logP reported for the following: OCCc1ccc(O)c(O)c1 [Compound 6, 3,4-dihydroxyphenethyl alcohol]
Outgoing: 0.1

Incoming: Give the value of logP reported for the following: O=C(OCCc1cccc(O)c1)C(F)(F)F [Compound 9, 3-Hydroxyphenethyl trifluoroacetate]
Outgoing: 1.96

Incoming: Give the value of logP reported for the following: O=C(OCCc1ccc(O)c(O)c1)C(F)(F)F [Compound 12, 3,4-Dihydroxyphenethyl trifluoroacetate]
Outgoing: 1.62

Incoming: Give the value of logP reported for the following: OCCc1cccc(O)c1 [Compound 3, 3-hydroxyphenethyl alcohol]
Outgoing: 0.66

Incoming: Give the value of logP reported for the following: O=C(OCCc1ccccc1O)C(F)(F)F [Compound 8, 2-Hydroxyphenethyl trifluoroacetate]
Outgoing: 2.05

Incoming: Give the value of logP reported for the following: OCCc1ccc(O)cc1 [Compound 4, 4-hydroxyphenethyl alcohol]
Outgoing: 0.69

* * *

Assay: Measurement of partition coefficient (logP) by UV-Vis spectrophotometry
Format: physicochemical
Details: 1-octanol / phosphate buffer 0.1 M pH 7.4; mean of triplicate determinations
Counter-ions that a name gives are not always drawn.
In this section, each of the compounds is paired with its reported logP.

# compound, logP
rows = [
    ("OCCc1ccccc1O [Compound 2, 2-hydroxyphenethyl alcohol]", 0.72),
    ("O=C(OCCc1ccccc1)C(F)(F)F [Compound 7, Phenethyl trifluoroacetate]", 2.38),
    ("COc1cc(CCO)ccc1O [Compound 5, 4-hydroxy-3-methoxyphenethyl alcohol]", 0.46),
    ("O=C(OCCc1ccc(O)cc1)C(F)(F)F [Compound 10, 4-Hydroxyphenethyl trifluoroacetate]", 1.98),
]

Moving on to the next compound.
Incoming: Give the value of logP reported for the following: "COc1cc(CCOC(=O)C(F)(F)F)ccc1O"
Outgoing: 1.9
